# procedure-summary: qHTS for Inhibitors of human tyrosyl-DNA phosphodiesterase 1 (TDP1): qHTS in cells in presence of CPT; also: nearly all actives have a fitted effect of over 55% in size
# protocol-conditions: chicken DT40 Tdp1-/-;hTDP1 cells + 20 nM CPT, ATP luminescence, 48 h; series mostly up to 46.2 µM
Out of some 420,000 compounds screened, about 50,000 (12%) were called active. Inconclusive results (about 26%) are left out. Calls follow the shape of the dose curve; as a rule, active = well fitted inhibition curve with a large enough effect; inconclusive = small, poorly fitted or top-dose-only effect; inactive = flat fitted curve, though single readings scatter. This is one part of a sample in which actives are shown more often than they occur.
Outcome codes: TRUE (active), FALSE (inactive)

>  <compound-string>
O=C(Nc1ccc2nc(SCC(=O)N3CCCc4ccccc43)sc2c1)c1ccc(Cl)cc1

>  <assigned-category>
TRUE

$$$$
>  <compound-string>
CCn1c(SCC(=O)NC2CC2)nnc1-c1ccccc1OC

>  <assigned-category>
FALSE

$$$$
>  <compound-string>
CCC(=O)Nc1ccc2nc(SCC(=O)N3CCc4ccccc43)sc2c1

>  <assigned-category>
TRUE

$$$$
>  <compound-string>
Cc1nnc(SCC(=O)N2CCc3ccccc32)n1-c1ccccc1

>  <assigned-category>
FALSE

$$$$
>  <compound-string>
O=C(CSc1ccc2nnc(-c3ccccc3)n2n1)N1CCCc2ccccc21

>  <assigned-category>
FALSE

$$$$
>  <compound-string>
CC(=O)N1CCCc2cc(S(=O)(=O)N3CCC(C(=O)NC4CCCCC4)CC3)ccc21

>  <assigned-category>
FALSE

$$$$
>  <compound-string>
COc1cccc(C(=O)NNC(=O)c2cccc(F)c2)c1

>  <assigned-category>
FALSE

$$$$
>  <compound-string>
Cn1c(=O)c2c(SCC(=O)N3CCc4ccccc43)nc(-c3ccc(Cl)cc3)nc2n(C)c1=O

>  <assigned-category>
FALSE

$$$$
>  <compound-string>
CC(=O)c1ccc(NC(=O)CSc2nnc(NC(=O)Nc3ccccc3)s2)cc1

>  <assigned-category>
FALSE

$$$$
>  <compound-string>
O=C(NCc1nnc(SCC(=O)N2CCCc3ccccc32)o1)c1ccccc1F

>  <assigned-category>
FALSE

$$$$
>  <compound-string>
O=C(CSc1nc2ccccc2s1)Nc1ccc(C(=O)O)cc1

>  <assigned-category>
FALSE

$$$$

* * *

# procedure-summary: qHTS for Inhibitors of human tyrosyl-DNA phosphodiesterase 1 (TDP1): qHTS in cells in presence of CPT; also: nearly all actives have a fitted effect of over 55% in size
# protocol-conditions: chicken DT40 Tdp1-/-;hTDP1 cells + 20 nM CPT, ATP luminescence, 48 h; series mostly up to 46.2 µM
The whole screen tested about 420,000 compounds, of which about 50,000 (12%) were called active. Inconclusive results (about 26%) are left out. The call rests on the fitted dose curve; in most records, active means well fitted inhibition curve with a large enough effect; inconclusive means small, poorly fitted or top-dose-only effect; inactive means flat fitted curve, though single readings scatter. The full list was thinned out, with actives kept by preference.
Outcome codes: TRUE for active, FALSE for inactive

>  <molecule>
CCCC(=O)N1CCC1(C)C(=O)NS(=O)(=O)c1ccc(Cl)cc1 (stereo unspecified)

>  <assigned-category>
FALSE

$$$$
>  <molecule>
O=C(CSc1nnc(Nc2ccccc2F)s1)NC1CCCC1

>  <assigned-category>
FALSE

$$$$
>  <molecule>
CN(CC#CCC(c1ccccc1)c1ccccc1)C(C)(C)C

>  <assigned-category>
TRUE

$$$$
>  <molecule>
O=Nc1c(O)cc(O)c2ccccc12

>  <assigned-category>
FALSE

$$$$
>  <molecule>
O=S(=O)(ON(c1ccccc1)S(=O)(=O)c1ccccc1)c1ccccc1

>  <assigned-category>
FALSE

$$$$
>  <molecule>
CCOC(=O)c1sc(NC(=O)CSc2nnc(-c3ccco3)o2)c(C(=O)OCC)c1C

>  <assigned-category>
FALSE

$$$$
>  <molecule>
CC1=C/C(=N\OS(=O)(=O)c2ccccc2)C=CC1=O

>  <assigned-category>
TRUE

$$$$
>  <molecule>
CC(C)(C)N(CC#CCC(O)(c1ccccc1)C1CCCC1)CCO (stereo unspecified)

>  <assigned-category>
FALSE

$$$$
>  <molecule>
COc1cc(S(=O)(=O)Nc2ncn[nH]2)ccc1Cl

>  <assigned-category>
FALSE

$$$$
>  <molecule>
Cc1ccc(C)c(S(=O)(=O)N2CCN(c3ncnc4sccc34)CC2)c1

>  <assigned-category>
TRUE

$$$$
>  <molecule>
CCOc1ccc(NC(=O)Cn2c(=O)n(CCCC(=O)NCc3ccc4c(c3)OCO4)c(=O)c3ccccc32)cc1

>  <assigned-category>
FALSE

$$$$

* * *

# procedure-summary: qHTS for Inhibitors of human tyrosyl-DNA phosphodiesterase 1 (TDP1): qHTS in cells in presence of CPT; also: nearly all actives have a fitted effect of over 55% in size
# protocol-conditions: chicken DT40 Tdp1-/-;hTDP1 cells + 20 nM CPT, ATP luminescence, 48 h; series mostly up to 46.2 µM
The campaign covered roughly 420,000 compounds. About 50,000 (12%) were called active. Roughly 26% stayed inconclusive and do not appear here. Calls come from the whole dose curve; as a rule, active = well fitted inhibition curve with a large enough effect; inconclusive = small, poorly fitted or top-dose-only effect; inactive = flat fitted curve, though single readings scatter. The list comes from a sample in which actives are over-represented; it also holds close analogues and randomly drawn compounds.
Outcome codes: active, inactive

>  <compound>
Cc1[nH]c2ccc(C(=O)N3CCN(C)CC3)cc2c1C

>  <assigned-category>
inactive

$$$$
>  <compound>
C=C(C)CNC(=S)/N=c1\scc(C)n1CC

>  <assigned-category>
active

$$$$
>  <compound>
Cc1ccc(Oc2nc3ccccc3n3c(C)nnc23)cc1

>  <assigned-category>
inactive

$$$$
>  <compound>
CCCNC(=O)C1CCN(c2nc3ccc(C)cc3[nH]2)CC1

>  <assigned-category>
inactive

$$$$
>  <compound>
O=C(Nc1c(-c2ccc(F)cc2)nc2ccccn12)c1cccc(F)c1

>  <assigned-category>
active

$$$$
>  <compound>
O=C(c1c(Cl)cccc1Cl)N1CCN(c2cccc3[nH]ccc23)CC1

>  <assigned-category>
inactive

$$$$
>  <compound>
CCCCCn1c(CCNC(=O)c2ccc(F)cc2)nc2ccccc21

>  <assigned-category>
active

$$$$
>  <compound>
O=C(O)c1c(NC(=O)N2CCCC2)sc2c1CCCC2

>  <assigned-category>
inactive

$$$$
>  <compound>
COc1ccc(/C=C/c2noc(-c3ccccc3OC(C)=O)n2)cc1

>  <assigned-category>
inactive

$$$$
>  <compound>
Cc1ccc2c(Cl)c(C(=O)Nc3nn[nH]n3)sc2c1

>  <assigned-category>
inactive

$$$$
>  <compound>
O=C(NN1CCOCC1)c1cccc(F)c1

>  <assigned-category>
inactive

$$$$
>  <compound>
C=CCO/N=C/C1=C(O)C(C(=O)OC)C(C)(C)CC1=O (centres undefined)

>  <assigned-category>
inactive

$$$$
>  <compound>
COc1ccc(C)cc1S(=O)(=O)Nc1cc2c3c(c1)CCC(=O)N3CCC2

>  <assigned-category>
inactive

$$$$
>  <compound>
Cc1ccc(Cn2c(=O)n(CCCC(=O)NCc3ccccc3Cl)c(=O)c3ccccc32)cc1

>  <assigned-category>
inactive

$$$$
>  <compound>
Cc1ccc(C2=NN(C)c3nc4ccccc4n3C2)cc1

>  <assigned-category>
active

$$$$
>  <compound>
COc1ccccc1N(CC(=O)N/N=C(\C)c1ccccc1O)S(=O)(=O)c1ccc(C)cc1

>  <assigned-category>
inactive

$$$$
>  <compound>
CCN(CC)c1ccc2c(Nc3ccccc3)c(C=O)c(=O)oc2c1

>  <assigned-category>
inactive

$$$$
>  <compound>
Cc1c(NC(=O)Nc2ccc(F)c(Cl)c2)c(=O)n(-c2ccccc2)n1C

>  <assigned-category>
inactive

$$$$
>  <compound>
CCS(=O)(=O)C1=NSC2=NC(=O)/C(=C\c3ccc(OS(=O)(=O)c4ccccc4)cc3)C(=N)N21

>  <assigned-category>
inactive

$$$$
>  <compound>
Cc1cc(C(=O)COC(=O)CNC(=O)c2ccc(F)cc2)c(C)n1Cc1ccco1

>  <assigned-category>
inactive

$$$$
>  <compound>
Cc1cc(C)c2c(Cn3ccnc3)cc(=O)oc2c1

>  <assigned-category>
inactive

$$$$
>  <compound>
CCCCNC(=O)CCn1c(=O)c2ccccc2n(Cc2cc(C)ccc2C)c1=O

>  <assigned-category>
inactive

$$$$
>  <compound>
COc1ccc(NS(=O)(=O)c2ccc(F)cc2F)cn1

>  <assigned-category>
inactive

$$$$
>  <compound>
N#Cc1c(N)sc2c1CCN(C(=O)OCc1ccccc1)C2

>  <assigned-category>
inactive

$$$$
>  <compound>
COc1ccc(S(=O)(=O)N2CCC(C(=O)NCCC(=O)NCCc3cccc(F)c3)CC2)cc1

>  <assigned-category>
inactive

$$$$
>  <compound>
NS(=O)(=O)c1cccnc1Nc1cccc(Cl)c1

>  <assigned-category>
inactive

$$$$
>  <compound>
CCN(CC)c1ccc2oc(=O)c(C)nc2c1

>  <assigned-category>
active

$$$$
>  <compound>
Cc1ccc(S(=O)(=O)N(CC(=O)NCc2ccco2)c2ccccc2C)cc1

>  <assigned-category>
inactive

$$$$
>  <compound>
Cc1cnc(C(=O)N2CCCC(N3CCN(c4ccccc4F)CC3)C2)cn1 (centres undefined)

>  <assigned-category>
inactive

$$$$
>  <compound>
Cc1nc2ccccc2n1CC(O)c1ccccc1 (centres undefined)

>  <assigned-category>
inactive

$$$$
>  <compound>
Cc1ccc(S(=O)(=O)N(CC(=O)Nc2ccc(Cl)cc2Cl)c2ccccc2C)cc1

>  <assigned-category>
active

$$$$
>  <compound>
CCn1c(-c2cccnc2Cl)nc2cc(C)c(C)cc21

>  <assigned-category>
inactive

$$$$
>  <compound>
CCOCCOC(=O)C1=C(C)N(C)C(=O)NC1c1ccccc1F (centres undefined)

>  <assigned-category>
inactive

$$$$
>  <compound>
O=CNc1cc(-c2ccc(C(=O)N3CCOCC3)cc2)cn2c(-c3ccc(F)cc3)cnc12

>  <assigned-category>
active

$$$$
>  <compound>
COc1ccc(CCNC(=O)CCCCn2c(=O)c3ccccc3n(Cc3ccccc3C)c2=O)cc1OC

>  <assigned-category>
active

$$$$
>  <compound>
CCn1cc(CN2CCC(C(=O)Nc3cccc(-c4cccc(Cl)c4)c3)CC2)c(C)n1

>  <assigned-category>
active

$$$$
>  <compound>
CCOc1ccc(CNC(=O)Cn2cc3c(n2)-c2c(oc(C(=O)N4CCCC4)c2C)CC3)cc1

>  <assigned-category>
active

$$$$
>  <compound>
N#C/C=C(/c1ccc(F)cc1)N1CCOCC1

>  <assigned-category>
inactive

$$$$
>  <compound>
Cc1oc(-c2cccc(NC(=O)c3ccccc3)c2)nc1CNC(=O)c1cnc2ccccn2c1=O

>  <assigned-category>
inactive

$$$$
>  <compound>
CCOC(=O)c1sc(NC(=O)CSc2n[nH]c(CC)n2)nc1C

>  <assigned-category>
inactive

$$$$
>  <compound>
Cc1sc2ccccc2c1CNC[C@H]1O[C@@H](n2ccc(=O)[nH]c2=O)[C@H](O)[C@@H]1O

>  <assigned-category>
inactive

$$$$
>  <compound>
COc1ccc(CCNC(=O)CCCn2c(=O)c3ccccc3n(Cc3ccc(C)cc3)c2=O)cc1OC

>  <assigned-category>
active

$$$$
>  <compound>
CSc1ccc(C(=O)C2CCCN(C(=O)c3ccc(C)nc3)C2)cc1 (centres undefined)

>  <assigned-category>
active

$$$$
>  <compound>
COc1cccc(/C=N/NC(=O)c2[nH]nc3c2CCc2ccccc2-3)c1O

>  <assigned-category>
active

$$$$
